# Test target: High affinity choline transporter 1 (Homo sapiens) (UniProt Q9GZV3)
# Sequence (Q9GZV3 whole entry, looked up): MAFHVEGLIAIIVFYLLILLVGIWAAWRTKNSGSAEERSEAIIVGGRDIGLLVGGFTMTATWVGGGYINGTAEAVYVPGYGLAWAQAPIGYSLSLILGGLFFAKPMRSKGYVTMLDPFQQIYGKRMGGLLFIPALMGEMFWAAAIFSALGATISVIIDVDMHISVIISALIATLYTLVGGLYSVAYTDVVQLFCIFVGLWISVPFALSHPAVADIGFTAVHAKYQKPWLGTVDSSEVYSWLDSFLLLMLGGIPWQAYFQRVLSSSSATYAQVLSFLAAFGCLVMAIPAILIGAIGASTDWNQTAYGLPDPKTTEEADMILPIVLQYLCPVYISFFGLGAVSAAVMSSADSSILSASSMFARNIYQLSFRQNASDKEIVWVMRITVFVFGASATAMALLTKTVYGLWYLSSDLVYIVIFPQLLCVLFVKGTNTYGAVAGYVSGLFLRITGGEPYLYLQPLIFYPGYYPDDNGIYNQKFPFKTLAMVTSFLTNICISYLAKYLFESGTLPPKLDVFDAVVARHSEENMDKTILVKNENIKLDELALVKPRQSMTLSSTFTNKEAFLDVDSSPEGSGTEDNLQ
# Assay procedure: inhibits the human high affinity choline transporter (AID 488975)
# Measurement setup: CHT-expressing cells, membrane potential dye, choline response, at 10 µM
The whole screen tested about 310,000 compounds, of which about 2,600 (0.84%) were called active.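 The calls were made as follows: active = B-score over 3 SD under the library average, and starting fluorescence ratio not unusually high; inactive = the rest.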 Only a selection was taken, and actives are over-represented in it overall.
Possible outcomes: active, inactive

{"columns": ["Compound", "Test target", "Label value"],
 "data": [
  ["CC[C@H]1CC2CN3CCc4c([nH]c5ccccc45)C(C(=O)OC)(C2)C13 (some centres undefined)", "High affinity choline transporter 1 (Homo sapiens) (UniProt Q9GZV3)", "inactive"],
  ["COC(=O)C1=C(c2cc3ccccc3s2)C[C@@H]2CC[C@H]1N2C(=O)NC(C)C", "High affinity choline transporter 1 (Homo sapiens) (UniProt Q9GZV3)", "inactive"],
  ["COc1ccc(CNCCc2c[nH]c3ccccc23)cc1OC", "High affinity choline transporter 1 (Homo sapiens) (UniProt Q9GZV3)", "inactive"],
  ["COc1ccccc1N1CCN(C(CNC(=O)Oc2ccccc2)c2cccnc2)CC1 (centres undefined)", "High affinity choline transporter 1 (Homo sapiens) (UniProt Q9GZV3)", "active"],
  ["Cc1nc2ccccn2c1P(=S)(N1CCCCC1)N1CCCCC1", "High affinity choline transporter 1 (Homo sapiens) (UniProt Q9GZV3)", "active"],
  ["O=C(NCC(c1cccnc1)N1CCN(c2ccccc2)CC1)Oc1ccccc1 (centres undefined)", "High affinity choline transporter 1 (Homo sapiens) (UniProt Q9GZV3)", "inactive"],
  ["COC(=O)C1=C(c2ccccc2)C[C@@H]2CC[C@H]1N2C(=O)NCc1ccco1", "High affinity choline transporter 1 (Homo sapiens) (UniProt Q9GZV3)", "inactive"],
  ["COc1ccc2c(c1)[C@]13CCCCC1C(C2)N(C)CC3 (some centres undefined)", "High affinity choline transporter 1 (Homo sapiens) (UniProt Q9GZV3)", "inactive"],
  ["C[N+]1(C)CCOC(O)(c2ccc(-c3ccc(C4(O)C[N+](C)(C)CCO4)cc3)cc2)C1 (centres undefined)", "High affinity choline transporter 1 (Homo sapiens) (UniProt Q9GZV3)", "active"]
]}

src = PubChem BioAssay AID488975
